- test.target: TYRO3 (Homo sapiens)
- Sequence (Q06418 41-890): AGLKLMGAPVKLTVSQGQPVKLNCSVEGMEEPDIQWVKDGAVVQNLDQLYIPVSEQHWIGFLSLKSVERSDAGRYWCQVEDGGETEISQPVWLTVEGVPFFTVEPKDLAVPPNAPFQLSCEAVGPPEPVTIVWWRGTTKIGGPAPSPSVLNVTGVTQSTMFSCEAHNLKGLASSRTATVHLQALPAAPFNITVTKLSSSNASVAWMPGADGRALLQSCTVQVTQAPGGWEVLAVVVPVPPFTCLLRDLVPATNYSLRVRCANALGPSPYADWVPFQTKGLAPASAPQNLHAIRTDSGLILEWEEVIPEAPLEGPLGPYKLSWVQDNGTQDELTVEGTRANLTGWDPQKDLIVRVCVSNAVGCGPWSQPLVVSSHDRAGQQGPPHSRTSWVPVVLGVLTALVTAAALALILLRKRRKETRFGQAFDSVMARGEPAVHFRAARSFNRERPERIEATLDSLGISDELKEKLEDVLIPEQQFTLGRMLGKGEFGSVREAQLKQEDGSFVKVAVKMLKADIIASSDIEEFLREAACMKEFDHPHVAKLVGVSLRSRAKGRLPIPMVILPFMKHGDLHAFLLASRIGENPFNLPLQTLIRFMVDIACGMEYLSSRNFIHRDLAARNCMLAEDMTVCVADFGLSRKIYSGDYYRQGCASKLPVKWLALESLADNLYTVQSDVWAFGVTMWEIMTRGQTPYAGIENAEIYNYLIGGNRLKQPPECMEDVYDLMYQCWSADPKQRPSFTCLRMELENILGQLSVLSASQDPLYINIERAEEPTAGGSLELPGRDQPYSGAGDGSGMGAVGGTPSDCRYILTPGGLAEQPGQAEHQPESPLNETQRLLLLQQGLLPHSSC
Where a name gives a salt, the structure may show the parent alone.
assay.endpoint: Ki

[[record]]
molecule = "CCCc1cc2c(N[C@H]3CC[C@H](O)CC3)c(C(=O)NC3CCN(c4ncccn4)CC3)cnc2[nH]1"
measured_result = "< 100 nM"


What value of Ki has been reported for the following molecule? N[C@H]1CC[C@H](Nc2c(C(=O)Nc3ccc(F)cc3)cnc3[nH]c(C(F)(F)F)cc23)CC1 [Compound 135, hydrochloride] < 100 nM

----------
- test.target: FLT3 (Homo sapiens, UniProt P36888)
- Sequence (P36888 27-993): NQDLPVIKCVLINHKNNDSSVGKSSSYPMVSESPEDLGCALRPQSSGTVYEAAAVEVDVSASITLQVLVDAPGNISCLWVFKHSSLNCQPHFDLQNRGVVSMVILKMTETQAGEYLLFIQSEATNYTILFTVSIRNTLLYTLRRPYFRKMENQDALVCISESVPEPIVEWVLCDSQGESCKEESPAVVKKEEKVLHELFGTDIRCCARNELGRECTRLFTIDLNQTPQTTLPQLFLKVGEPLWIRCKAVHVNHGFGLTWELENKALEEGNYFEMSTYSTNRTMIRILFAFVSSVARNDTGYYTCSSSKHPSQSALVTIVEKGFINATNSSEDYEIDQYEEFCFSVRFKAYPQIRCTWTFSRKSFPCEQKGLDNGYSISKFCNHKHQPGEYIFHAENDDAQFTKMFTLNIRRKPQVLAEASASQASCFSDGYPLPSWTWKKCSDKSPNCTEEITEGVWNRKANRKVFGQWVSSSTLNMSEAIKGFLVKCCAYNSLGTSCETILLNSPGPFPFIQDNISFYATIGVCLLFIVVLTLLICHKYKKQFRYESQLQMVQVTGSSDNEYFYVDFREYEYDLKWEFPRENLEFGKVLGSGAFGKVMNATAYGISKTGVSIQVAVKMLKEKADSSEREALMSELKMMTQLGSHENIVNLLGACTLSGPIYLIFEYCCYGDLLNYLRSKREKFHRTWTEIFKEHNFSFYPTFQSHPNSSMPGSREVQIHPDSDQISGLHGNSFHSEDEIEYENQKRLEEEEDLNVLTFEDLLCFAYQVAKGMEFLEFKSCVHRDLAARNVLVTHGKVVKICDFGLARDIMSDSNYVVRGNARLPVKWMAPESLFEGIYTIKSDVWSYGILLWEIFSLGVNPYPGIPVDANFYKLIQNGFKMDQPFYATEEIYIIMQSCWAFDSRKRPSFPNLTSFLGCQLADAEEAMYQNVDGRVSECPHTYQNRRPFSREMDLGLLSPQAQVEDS
pKi: −log10 of the molar value.
assay.endpoint: pKi

What value of pKi has been reported for the following compound? CCc1cc2c(N[C@H]3CC[C@H](O)CC3)c(-c3ccc(CN4CCOCC4)cn3)cnc2[nH]1 > 7.00

What value of pKi has been reported for the following compound? CCCc1cc2c(N[C@H]3CC[C@H](O)CC3)c(-c3ccc(CN4CCOCC4)cn3)cnc2[nH]1 > 7.00

What value of pKi has been reported for the following compound? CCCC(OC)c1cc2c(N[C@H]3CC[C@H](N)CC3)c(C(=O)Nc3ccc(F)cc3)cnc2[nH]1 (stereo partly shown) < 5.00

What value of pKi has been reported for the following compound? CCCc1cc2c(N[C@H]3CC[C@H](N)CC3)c(C(=O)NCc3ccc(-n4ccnc4)cc3)cnc2[nH]1 > 7.00

----------
Protein target, amino acids: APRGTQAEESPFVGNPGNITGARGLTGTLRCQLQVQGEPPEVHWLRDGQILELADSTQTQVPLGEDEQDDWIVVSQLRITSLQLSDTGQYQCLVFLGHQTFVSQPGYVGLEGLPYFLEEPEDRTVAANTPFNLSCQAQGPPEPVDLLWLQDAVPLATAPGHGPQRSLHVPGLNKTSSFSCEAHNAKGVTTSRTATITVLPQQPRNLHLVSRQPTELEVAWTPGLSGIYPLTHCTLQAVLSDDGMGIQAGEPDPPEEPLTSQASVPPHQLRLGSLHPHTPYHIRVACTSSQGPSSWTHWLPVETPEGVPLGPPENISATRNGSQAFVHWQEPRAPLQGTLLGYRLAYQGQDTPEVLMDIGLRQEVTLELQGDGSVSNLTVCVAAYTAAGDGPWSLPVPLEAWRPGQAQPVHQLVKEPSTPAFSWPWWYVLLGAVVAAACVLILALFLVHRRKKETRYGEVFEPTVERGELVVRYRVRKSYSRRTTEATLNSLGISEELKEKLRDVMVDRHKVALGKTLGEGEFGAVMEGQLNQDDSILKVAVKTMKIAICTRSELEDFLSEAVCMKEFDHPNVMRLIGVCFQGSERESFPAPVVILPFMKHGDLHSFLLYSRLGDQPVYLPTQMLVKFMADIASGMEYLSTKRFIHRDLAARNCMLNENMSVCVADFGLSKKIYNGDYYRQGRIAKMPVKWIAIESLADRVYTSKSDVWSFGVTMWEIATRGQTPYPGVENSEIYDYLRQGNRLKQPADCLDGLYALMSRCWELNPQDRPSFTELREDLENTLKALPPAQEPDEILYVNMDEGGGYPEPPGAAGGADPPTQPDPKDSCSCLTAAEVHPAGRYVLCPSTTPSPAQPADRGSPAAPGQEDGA
Structures can show the parent of a compound that is named as a salt.
# Ki annotations

Worked cases, answers included:
[[record]]
molecule = "CCC(C)c1cc2c(N[C@H]3CC[C@H](O)CC3)c(-c3ccc(S(=O)(=O)N4CCOCC4)cn3)cnc2[nH]1 (stereo partly shown) [Compound 159]"
measured_result = "> 10000 nM"

[[record]]
molecule = "CCCc1cc2c(N[C@H]3CC[C@H](N)CC3)c(C(=O)NC3CCOCC3)cnc2[nH]1 [Compound 124]"
measured_result = "100 to 1000 nM"

[[record]]
molecule = "CCCCCc1cc2c(N[C@H]3CC[C@H](N)CC3)c(C(=O)NCc3ccc(-n4ccnc4)cc3)cnc2[nH]1 [Compound 133]"
measured_result = "100 to 1000 nM"

[[record]]
molecule = "CCCc1cc2c(N[C@H]3CC[C@H](N)CC3)c(-c3cc(NC)ncn3)cnc2[nH]1 [Compound 111, hydrochloride]"
measured_result = "100 to 1000 nM"

[[record]]
molecule = "N[C@H]1CC[C@H](Nc2c(C(=O)Nc3ccc(F)cc3)cnc3[nH]c(C(F)(F)F)cc23)CC1 [Compound 135, hydrochloride]"
measured_result = "100 to 1000 nM"

[[record]]
molecule = "CCCc1cc2c(N[C@H]3CC[C@H](O)CC3)c(-c3cnn(CCN(C)C)c3)cnc2[nH]1 [Compound 107]"
measured_result = "1000 to 10000 nM"

[[record]]
molecule = "CCCc1cc2c(N[C@H]3CC[C@H](N)CC3)c(C(=O)Nc3ccc(F)cc3)cnc2[nH]1 [Compound 100, hydrochloride]"
measured_result = "1000 to 10000 nM"

[[record]]
molecule = "CCCc1cc2c(N[C@H]3CC[C@H](N)CC3)c(-c3ccc(F)cn3)cnc2[nH]1 [Compound 114]"
measured_result = "100 to 1000 nM"

[[record]]
molecule = "CCCc1cc2c(N[C@H]3CC[C@H](O)CC3)c(-c3ccc(CN4CCOCC4)cc3)cnc2[nH]1 [Compound 106, hydrochloride]"
measured_result = "> 10000 nM"

[[record]]
molecule = "CCCc1cc2c(N[C@H]3CC[C@H](N)CC3)c(-c3cnn(C)c3)cnc2[nH]1 [Compound 108, hydrochloride]"
measured_result = "1000 to 10000 nM"


What value of Ki has been reported for the following molecule? CCOC(C)c1cc2c(N[C@H]3CC[C@H](N)CC3)c(C(=O)Nc3ccc(F)cc3)cnc2[nH]1 (stereo partly shown) [Compound 152] > 10000 nM

What value of Ki has been reported for the following molecule? CCCc1cc2c(N[C@H]3CC[C@H](N)CC3)c(-c3cc(NC(C)C)ncn3)cnc2[nH]1 [Compound 112] 100 to 1000 nM

What value of Ki has been reported for the following molecule? CCCc1cc2c(N[C@H]3CC[C@H](O)CC3)c(-c3ccc(CN4CCCC4)cn3)cnc2[nH]1 [Compound 125] 100 to 1000 nM

What value of Ki has been reported for the following molecule? CCCC(O)c1cc2c(N[C@H]3CC[C@H](N)CC3)c(Br)cnc2[nH]1 (stereo partly shown) [Compound 137] 1000 to 10000 nM

What value of Ki has been reported for the following molecule? N[C@H]1CC[C@H](Nc2c(C(=O)Nc3ccc(F)cc3)cnc3[nH]c(C4CCC4)cc23)CC1 [Compound 138, hydrochloride] 1000 to 10000 nM

----------
pKi: −log10 of the molar value. Structures can show the parent of a compound that is named as a salt.
Observed pKi, system TYRO3 (Homo sapiens).

Worked cases, answers included:
[[record]]
compound = "CCCc1cc2c(N[C@H]3CC[C@H](N)CC3)c(-c3cc(N)ccn3)cnc2[nH]1 [Compound 131]"
assay_endpoint = "pKi"
measured_result = "> 7.00"

[[record]]
compound = "CCCc1cc2c(N[C@H]3CC[C@H](N)CC3)c(-c3cc(NC)ncn3)cnc2[nH]1 [Compound 111, hydrochloride]"
assay_endpoint = "pKi"
measured_result = "> 7.00"


Please state recorded pKi (tested on TYRO3 (Homo sapiens)) of C#Cc1cc2c(N[C@H]3CC[C@H](N)CC3)c(C(=O)Nc3ccc(F)cc3)cnc2[nH]1 [Compound 128] 6.00 to 7.00

Please state recorded pKi (tested on TYRO3 (Homo sapiens)) of CCCc1cc2c(N[C@H]3CC[C@H](N)CC3)c(C(=O)NC3CCN(c4ncccn4)CC3)cnc2[nH]1 [Compound 141] > 7.00

Please state recorded pKi (tested on TYRO3 (Homo sapiens)) of CCCc1cc2c(N[C@H]3CC[C@H](N)CC3)c(-c3ccc(N)cn3)cnc2[nH]1 [Compound 120] > 7.00

Please state recorded pKi (tested on TYRO3 (Homo sapiens)) of CCCc1cc2c(N[C@H]3CC[C@H](O)CC3)c(-c3ccc(CN4CCOCC4)cc3)cnc2[nH]1 [Compound 106, hydrochloride] 6.00 to 7.00
